Test system: KAI3 (IL-2 2.5 ng/mL)
Test: relative IC50 (inflection point of fitted viability curve, relative to fitted max inhibition); higher = less sensitive
Settings: 72 h
Answer False if relative IC50 is under 200 nM, and True if it is 200 nM or more.

INSERT INTO results (query_smiles, category) VALUES
  ('Cn1cncc1[C@@](N)(c1ccc(Cl)cc1)c1ccc2c(c1)c(-c1cccc(Cl)c1)cc(=O)n2C', 'False'),
  ('Cc1nc(Nc2n[nH]c3c2CN(C(=O)N[C@H](CN(C)C)c2ccccc2)C3(C)C)c2sccc2n1', 'True'),
  ('O=C(O)c1ccc2c(c1)nc(Nc1cccc(Cl)c1)c1ccncc12', 'True'),
  ('CCn1nnc2c(N3CCOCC3)nc(-c3ccc(NC(=O)Nc4ccc(C(=O)N5CCN(C)CC5)cc4)cc3)nc21', 'False'),
  ('CCNC(=O)c1noc(-c2cc(C(C)C)c(O)cc2O)c1-c1ccc(CN2CCOCC2)cc1', 'False'),
  ('Cc1ncc(-c2ccnc(Nc3ccc(S(C)(=O)=O)cc3)n2)n1C(C)C', 'True');

All values here come from the supplement of paper PMC5908809.
